B1: Protein piccolo, residues 1058 to 1114; numbered along this chain, Q9Y6V0 (parent)
chain: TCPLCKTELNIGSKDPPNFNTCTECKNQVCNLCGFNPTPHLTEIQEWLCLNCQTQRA

variants of: B1; assay: abundance fitness (aPCA) (normalised: wild type 0, dead -1); higher = more abundant; growth selection in yeast, the domain comes from the species named; conditions: Homo sapiens
assay_readout: abundance fitness

>  <item_sequence>
TCPLCKTELNIGSKDPPNFNTCTECKNQVCNLCGFNPTPELTEIQEWLCLNCQTQRA [H40E]

>  <abundance fitness>
-0.065

$$$$
>  <item_sequence>
TCPLCKTELNIGSKDPPNFNTCTECKNQVCNLCGFNPTPHCTEIQEWLCLNCQTQRA [L41C]

>  <abundance fitness>
0.004

$$$$
>  <item_sequence>
TCPLCKTELNIGSADPPNFNTCTECKNQVCNLCGFNPTPHLTEIQEWLCLNCQTQRA [K14A]

>  <abundance fitness>
-0.079

$$$$
>  <item_sequence>
TCPLCKTELNIGSKDPPNFNTCTECKNQVCNLCGFNPTGHLTEIQEWLCLNCQTQRA [P39G]

>  <abundance fitness>
-0.211

$$$$
>  <item_sequence>
TCPLCKTELNIGSKDPPRFNTCTECKNQVCNLCGFNPTPHLTEIQEWLCLNCQTQRA [N18R]

>  <abundance fitness>
-0.079

$$$$
>  <item_sequence>
TCPLCKTELNIGSKDPPNFNTCTECKNQVCNLCGFNPTPYLTEIQEWLCLNCQTQRA [H40Y]

>  <abundance fitness>
-0.13

$$$$

For the variant TCPLCKTELNIGSKDPPNFNTCTECKNQVCNLCGMNPTPHLTEIQEWLCLNCQTQRA [F35M] , what abundance fitness is on record?
0.291

TCPLCKCELNIGSKDPPNFNTCTECKNQVCNLCGFNPTPHLTEIQEWLCLNCQTQRA [T7C] ?
-0.56

Next up: TCPLCKTELNIGSKDPPNFNTCTECKNQVCNLCGFNPTPHLTEIQEELCLNCQTQRA [W47E]
0.031

Try this variant too: TCPLCKTELNIGSKDPPNANTCTECKNQVCNLCGFNPTPHLTEIQEWLCLNCQTQRA [F19A]
-0.114

Would you kindly repeat that for TCPLCKFELNIGSKDPPNFNTCTECKNQVCNLCGFNPTPHLTEIQEWLCLNCQTQRA [T7F] ?
-0.342

Now consider TCPLCKTELNIGMKDPPNFNTCTECKNQVCNLCGFNPTPHLTEIQEWLCLNCQTQRA [S13M] and answer again.
0.012

Item: TCPLCKTELNIGSKDPPNFNTCDECKNQVCNLCGFNPTPHLTEIQEWLCLNCQTQRA [T23D]
0.041

Likewise for TCPLCKTELNIGSKDPPNFNTCTECKNQVCNLCGFNPTHHLTEIQEWLCLNCQTQRA [P39H] ?
-0.393

Try TCPLCKTELNIGSKDPPNFNTCTECKNQVCNLCGFNPTPHLDEIQEWLCLNCQTQRA [T42D] next.
-0.015

Try this variant next: TCPLCKTELNIESKDPPNFNTCTECKNQVCNLCGFNPTPHLTEIQEWLCLNCQTQRA [G12E]
0.092

Consider next the variant TCPLCKTELNIGSKDPPNFNTCTECKNQVCKLCGFNPTPHLTEIQEWLCLNCQTQRA [N31K] in the same way.
0.12
